Target: human muscarinic M4 receptor (Homo sapiens, UniProt P08173)
Construct: expressed in transfected cells
Sequence (P08173 1-479): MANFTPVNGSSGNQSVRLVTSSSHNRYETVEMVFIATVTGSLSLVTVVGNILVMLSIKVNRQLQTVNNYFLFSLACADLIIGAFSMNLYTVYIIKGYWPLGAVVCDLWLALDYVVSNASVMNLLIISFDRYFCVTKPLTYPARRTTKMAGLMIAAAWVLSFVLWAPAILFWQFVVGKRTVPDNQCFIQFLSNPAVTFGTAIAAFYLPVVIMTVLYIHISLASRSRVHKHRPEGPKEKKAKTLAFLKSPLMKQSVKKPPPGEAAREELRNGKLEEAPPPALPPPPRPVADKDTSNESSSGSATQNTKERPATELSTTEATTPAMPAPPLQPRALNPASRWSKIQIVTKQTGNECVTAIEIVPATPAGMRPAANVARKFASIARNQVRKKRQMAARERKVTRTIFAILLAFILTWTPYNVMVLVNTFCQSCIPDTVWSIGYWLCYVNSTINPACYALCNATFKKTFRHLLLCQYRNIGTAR
Test: Alphascreen Surefire phospho-ERK1/2 functional assay, M4
Format: cell-based
Conditions: CHO cells stably expressing human M4; agonist 5 min, 37° C.; read-out: pEC50 M4 (converted)
reported.metric: EC50 (µM)

Solved entries (count: 3):
• CCOC(=O)N1C2CCCC1CC(N1CC(OC(=O)N(CC)CC)C1)C2 (single isomer, unassigned) [Example 7-1 Isomer 1] = 2.29
• CCOC(=O)N1C2CCCC1CC(N1CC(CC(=O)N3CCCC3)C1)C2 (single isomer, unassigned) [Example 3-2 Isomer 1] = 0.933
• CCOC(=O)N1CC2CCC1CC2N1CC(OC(=O)N2CCCCC2)C1 (single isomer, unassigned) [Example 6-3 Isomer 1] = 1.62

1 = CCN(CC)C(=O)OC1CN(C2CCC3(C2)CN(C(=O)OC)C3)C1 (single isomer, unassigned) [Example 4-6 Isomer 1]
2 = CCOC(=O)N1CC2CCC1CC2N1CC(OC(=O)N2CCCCCC2)C1 (single isomer, unassigned) [Example 6-4 Isomer 1]
3 = CCOC(=O)N1CC2(CC(N3CC(OC(=O)N(CC)CC)C3)C2)C1
Request: Rank the 3 molecules: largest EC50 first, smallest last. Answer format: the labels, ordered as requested.
Response: 3, 1, 2
(3: 1.7 µM, 1: 1.12 µM, 2: 0.49 µM)

A = CCOC(=O)N1CCC2(CC(N3CC(OC(=O)N4CCCOCC4)C3)C2)C1 (single isomer, unassigned) [Example 4-3 Isomer 2]
B = CCOC(=O)N1CC2CCC1CC2N1CC(OC(=O)N2CCCC2)C1 (single isomer, unassigned) [Example 6-2 Isomer 1]
Request: Would you kindly point out which of A and B has the smaller EC50 figure? // return label of chosen record
Response: B
(B: 0.646 µM, A: 1.02 µM)
